# System: Mus musculus
# EXPERIMENTAL DETAILS: Inhibition of proteinuria in the graft-versus-host disease mice following 100 mg/kg p.o. administration.
# Type: functional
# RUN PARAMETERS: route oral
As shown below, each of these compounds has a reported inhibition in vivo at 100 mg/kg value.

// below: answered compounds
Nc1ccc(C(=O)c2cccc(N)c2)cc1 = < 50%
Nc1ncc([S+]([O-])c2ccccn2)s1 (centres undefined) = 98%
Cc1cc(C(=O)c2ccc(N)cc2)cc(C)c1N = 99%
Cn1ccnc1[S+]([O-])c1ccc(N)cc1 (centres undefined) = < 50%

Reported inhibition in vivo at 100 mg/kg for `Nc1ccc(C(=O)c2ccc(N)cc2)cc1` was 95%

Reported inhibition in vivo at 100 mg/kg for `Nc1ccc(C(=O)c2ccncc2)cc1` was 89%

Reported inhibition in vivo at 100 mg/kg for `Nc1ccc(Oc2ccc(N)cc2)cc1` was 93%

* * *

# Tested on: Mus musculus
# EXPERIMENTAL DETAILS: Inhibition of proteinuria in the graft-versus-host disease mice following 100 mg/kg p.o. administration.
# Type: functional
# RUN PARAMETERS: route oral
As shown below, each of these compounds has a reported inhibition in vivo at 100 mg/kg value.
Report the value in % with no unit label.

Reported inhibition in vivo at 100 mg/kg for `Nc1ncc(S(=O)(=O)c2ccccn2)s1` was 92

Reported inhibition in vivo at 100 mg/kg for Nc1ccc([S+]([O-])c2cnc(N)s2)cc1 (configuration not stated) was 79

Reported inhibition in vivo at 100 mg/kg for `Nc1ncc(Sc2ccccn2)s1` was 90

Reported inhibition in vivo at 100 mg/kg for Nc1ccc(S(=O)(=O)c2ccc(N)cc2)cc1 [DAPSONE] was 95

Reported inhibition in vivo at 100 mg/kg for Nc1ccc(Sc2ccc(N)cc2)cc1 [4,4'-THIODIANILINE] was 70

* * *

As shown below, each of these compounds has a reported inhibition in vivo at 100 mg/kg value.
# Tested on: Mus musculus
# EXPERIMENTAL DETAILS: Inhibition of proteinuria in the graft-versus-host disease mice following 100 mg/kg p.o. administration.
# Format: functional
# RUN PARAMETERS: route oral
Report the value in % with no unit label.

// below: answered compounds
Nc1ccc(NS(=O)(=O)c2ccc(N)cc2)cc1 = 54
Nc1ccc([S+]([O-])c2ncccn2)cc1 (configuration not stated) = 99
Cc1cc(C(=O)c2ccc(N)cc2)ccc1N = 100

# input for lookup
Reported inhibition in vivo at 100 mg/kg for `Nc1ccc([S+]([O-])c2ccc(N)cc2)cc1` was 95

* * *

As shown below, each of these compounds has a reported inhibition in vivo at 100 mg/kg value.
# Tested on: Mus musculus
# EXPERIMENTAL DETAILS: Inhibition of proteinuria in the graft-versus-host disease mice following 100 mg/kg p.o. administration.
# Type: functional
# RUN PARAMETERS: route oral

// below: answered compounds
CS(=O)(=O)Nc1ccc(C(=O)c2ccc(N)cc2)cc1 = < 50%
Nc1ccc(NC(=O)c2ccc(N)cc2)cc1 = < 50%

Reported inhibition in vivo at 100 mg/kg for `NC(=O)Nc1ccc(C(=O)c2ccc(N)cc2)cc1` was < 50%

Sourced from ChEMBL document CHEMBL1130978
